Values were extracted from paper PMC7491322.

Target: Lsm1-7 (Schizosaccharomyces pombe, UniProt P87173;O94408;Q9Y7M4;O14352;O42978;Q9UUI1;O74499 …)
Test: fluorescence polarization; FP: 100 mM NaCl, 20 mM Tris pH 8.2 (final ~8), 10 mM MgCl2, 1 mM TCEP, 1 mM Na azide, 0.1 mg/mL each tRNA, BSA and heparin; temperature not stated; 1 nM RNA final; Hill fixed at 1
Conditions: protein: recombinant; tags: Lsm4 C-term strep-II (as for Lsm2-8); Lsm7 untagged; GST (Lsm3) and MBP (Lsm6) with TEV sites, TEV treated; copies: 1;1;1;1;1;1;1; label: 5'-FAM; 5' hairpin, single-stranded 3' end
PROPERTY: pKd
Please report pKd as the negative decimal logarithm of the molar concentration, giving only the number.

Entry GGCACUUCGGUGCCCCCCAUUUUA (structured_RNA) [5' stem-loop RNA with UUUUA site] ; pKd = 7.15
